Assay: total protein half-life in vivo (active degradation + dilution); higher = more stable protein
Conditions: wild type E. coli NCM3722; growth: P-lim chemostat; doubling time 6 h
Grouping by measured total protein half-life in vivo is done with the following cut points: bottom = under 5 h, middle = from 5 h up to 6 h, top = 6 h and over

{"item-sequence": "MDNDKIDQHSDEIEVESEEKERGKKIEIDEDRLPSRAMAIHEHIRQDGEKELERDAMALLWSAIAAGLSMGASLLAKGIFQVELEGVPGSFLLENLGYTFGFIIVIMARQQLFTENTVTAVLPVMQKPTMSNVGLLIRLWGVVLLGNILGTGIAAWAFEYMPIFNEETRDAFVKIGMDVMKNTPSEMFANAIISGWLIATMVWMFPAAGAAKIVVIILMTWLIALGDTTHIVVGSVEILYLVFNGTLHWSDFIWPFALPTLAGNICGGTFIFALMSHAQIRNDMSNKRKAEARQKAERAENIKKNYKNPA", "classification": "top"}
{"item-sequence": "MKVKVLSLLVPALLVAGAANAAEVYNKDGNKLDLYGKVDGLHYFSDNKDVDGDQTYMRLGFKGETQVTDQLTGYGQWEYQIQGNSAENENNSWTRVAFAGLKFQDVGSFDYGRNYGVVYDVTSWTDVLPEFGGDTYGSDNFMQQRGNGFATYRNTDFFGLVDGLNFAVQYQGKNGNPSGEGFTSGVTNNGRDALRQNGDGVGGSITYDYEGFGIGGAISSSKRTDAQNTAAYIGNGDRAETYTGGLKYDANNIYLAAQYTQTYNATRVGSLGWANKAQNFEAVAQYQFDFGLRPSLAYLQSKGKNLGRGYDDEDILKYVDVGATYYFNKNMSTYVDYKINLLDDNQFTRDAGINTDNIVALGLVYQF", "classification": "top"}
{"item-sequence": "MTAPLTLLIVEDETPLAEMHAEYIRHIPGFSQILLAGNLAQARMMIERFKPGLILLDNYLPDGRGINLLHELVQAHYPGDVVFTTAASDMETVSEAVRCGVFDYLIKPIAYERLGQTLTRFRQRKHMLESIDSASQKQIDEMFNAYARGEPKDELPTGIDPLTLNAVRKLFKEPGVQHTAETVAQALTISRTTARRYLEYCASRHLIIAEIVHGKVGRPQRIYHSG [P0AEF4]", "classification": "bottom"}
{"item-sequence": "MIVLVTGATAGFGECITRRFIQQGHKVIATGRRQERLQELKDELGDNLYIAQLDVRNRAAIEEMLASLPAEWCNIDILVNNAGLALGMEPAHKASVEDWETMIDTNNKGLVYMTRAVLPGMVERNHGHIINIGSTAGSWPYAGGNVYGATKAFVRQFSLNLRTDLHGTAVRVTDIEPGLVGGTEFSNVRFKGDDGKAEKTYQNTVALTPEDVSEAVWWVSTLPAHVNINTLEMMPVTQSYAGLNVHRQ", "classification": "top"}
{"item-sequence": "MVSRRVQALLDQLRAQGIQDEQVLNALAAVPREKFVDEAFEQKAWDNIALPIGQGQTISQPYMVARMTELLELTPQSRVLEIGTGSGYQTAILAHLVQHVCSVERIKGLQWQARRRLKNLDLHNVSTRHGDGWQGWQARAPFDAIIVTAAPPEIPTALMTQLDEGGILVLPVGEEHQYLKRVRRRGGEFIIDTVEAVRFVPLVKGELA [P0A7A5]", "classification": "middle"}
{"item-sequence": "MKKYLALALIAPLLISCSTTKKGDTYNEAWVKDTNGFDILMGQFAHNIENIWGFKEVVIAGPKDYVKYTDQYQTRSHINFDDGTITIETIAGTEPAAHLRRAIIKTLLMGDDPSSVDLYSDVDDITISKEPFLYGQVVDNTGQPIRWEGRASNFADYLLKNRLKSRSNGLRIIYSVTINMVPNHLDKRAHKYLGMVRQASRKYGVDESLILAIMQTESSFNPYAVSRSDALGLMQVVQHTAGKDVFRSQGKSGTPSRSFLFDPASNIDTGTAYLAMLNNVYLGGIDNPTSRRYAVITAYNGGAGSVLRVFSNDKIQAANIINTMTPGDVYQTLTTRHPSAESRRYLYKVNTAQKSYRRR [P0C066]", "classification": "top"}
{"item-sequence": "MDHRLLEIIACPVCNGKLWYNQEKQELICKLDNLAFPLRDGIPVLLETEARVLTADESKS [P0AAZ7]", "classification": "bottom"}
{"item-sequence": "MTMKKLLIIILPVLLSGCSAFNQLVERMQTDTLEYQCDEKPLTVKLNNPRQEVSFVYDNQLLHLKQGISASGARYTDGIYVFWSKGDEATVYKRDRIVLNNCQLQNPQR", "classification": "top"}
{"item-sequence": "MPLSAQQLAAQKNLSYVLAEKLAQRILKGEYEPGTILPGEIELGEQFGVSRTAVREAVKTLTAKGMVLPRPRIGTRVMPQSNWNFLDQELLTWWMTEENFHQVIDHFLVMRICLEPQACLLAATVGTAEQKAHLNTLMAEMAALKENFRRERWIEVDMAWHEHIYEMSANPFLTSFASLFHSVYHTYFTSITSDTVIKLDLHQAIVDAIIQSDGDAAFKACQALLRSPDK", "classification": "bottom"}
{"item-sequence": "MGFLSGKRILVTGVASKLSIAYGIAQAMHREGAELAFTYQNDKLKGRVEEFAAQLGSDIVLQCDVAEDASIDTMFAELGKVWPKFDGFVHSIGFAPGDQLDGDYVNAVTREGFKIAHDISSYSFVAMAKACRSMLNPGSALLTLSYLGAERAIPNYNVMGLAKASLEANVRYMANAMGPEGVRVNAISAGPIRTLAASGIKDFRKMLAHCEAVTPIRRTVTIEDVGNSAAFLCSDLSAGISGEVVHVDGGFSIAAMNELELK [P0AEK4]", "classification": "top"}
{"item-sequence": "MTKLKLLALGVLIATSAGVAHAEGKFSLGAGVGVVEHPYKDYDTDVYPVPVINYEGDNFWFRGLGGGYYLWNDATDKLSITAYWSPLYFKAKDSGDHQMRHLDDRKSTMMAGLSYAHFTQYGYLRTTLAGDTLDNSNGIVWDMAWLYRYTNGGLTVTPGIGVQWNSENQNEYYYGVSRKESARSGLRGYNPNDSWSPYLELSASYNFLGDWSVYGTARYTRLSDEVTDSPMVDKSWTGLISTGITYKF [P0A908]", "classification": "middle"}

* * *

Test: total protein half-life in vivo (active degradation + dilution); higher = more stable protein
Settings: wild type E. coli NCM3722; growth: P-lim chemostat; doubling time 12 h
// reported total protein half-life in vivo per item
measure-name: total protein half-life in vivo (h)

{"item-sequence": "MKATSEELAIFVSVVESGSFSRAAEQLGQANSAVSRAVKKLEMKLGVSLLNRTTRQLSLTEEGERYFRRVQSILQEMAAAESEIMETRNTPRGLLRIDAATPVVLHFLMPLIKPFRERYPEVTLSLVSSETIINLIERKVDVAIRAGTLTDSSLRARPLFNSYRKIIASPDYISRYGKPETIDDLKQHICLGFTEPASLNTWPIARSDGQLHEVKYGLSSNSGETLKQLCLSGNGIACLSDYMIDKEIARGELVELMADKVLPVEMPFSAVYYSDRAVSTRIRAFIDFLSEHVKTAPGGAVREA", "result-value": 12}
{"item-sequence": "MSKNYHIAVLPGDGIGPEVMTQALKVLDAVRNRFAMRITTSHYDVGGAAIDNHGQPLPPATVEGCEQADAVLFGSVGGPKWEHLPPDQQPERGALLPLRKHFKLFSNLRPAKLYQGLEAFCPLRADIAANGFDILCVRELTGGIYFGQPKGREGSGQYEKAFDTEVYHRFEIERIARIAFESARKRRHKVTSIDKANVLQSSILWREIVNEIATEYPDVELAHMYIDNATMQLIKDPSQFDVLLCSNLFGDILSDECAMITGSMGMLPSASLNEQGFGLYEPAGGSAPDIAGKNIANPIAQILSLALLLRYSLDADDAACAIERAINRALEEGIRTGDLARGAAAVSTDEMGDIIARYVAEGV", "result-value": 9.08}

* * *

Test: total protein half-life in vivo (active degradation + dilution); higher = more stable protein
Settings: E. coli NCM3722 delta-clpP delta-lon delta-hslV; growth: N-lim chemostat; doubling time 6 h
Measured total protein half-life in vivo, listed per entry for reference.

{"item-sequence": "MKDVVDKCSTKGCAIDIGTVIDNDNCTSKFSRFFATREEAESFMTKLKELAAATSSADEGASVAYKIKDLEGQVELDAAFTFSCQAEMIIFELSLRSLA", "unit-symbol": "h", "total protein half-life in vivo": 5.09}
{"item-sequence": "MKNKADNKKRNFLTHSEIESLLKAANTGPHAARNYCLTLLCFIHGFRASEICRLRISDIDLKAKCIYIHRLKKGFSTTHPLLNKEVQALKNWLSIRTSYPHAESEWVFLSRKGNPLSRQQFYHIISTSGGNAGLSLEIHPHMLRHSCGFALANMGIDTRLIQDYLGHRNIRHTVWYTASNAGRFYGIWDRARGRQRHAVL [P0ADH5]", "unit-symbol": "h", "total protein half-life in vivo": 5.33}
{"item-sequence": "MTTLAIDIGGTKLAAALIGADGQIRDRRELPTPASQTPEALRDALSALVSPLQAHAQRVAIASTGIIRDGSLLALNPHNLGGLLHFPLVKTLEQLTNLPTIAINDAQAAAWAEFQALDGDITDMVFITVSTGVGGGVVSGCKLLTGPGGLAGHIGHTLADPHGPVCGCGRTGCVEAIASGRGIAAAAQGELAGADAKTIFTRAGQGDEQAQQLIHRSARTLARLIADIKATTDCQCVVVGGSVGLAEGYLALVETYLAQEPAAFHVDLLAAHYRHDAGLLGAALLAQGEKL", "unit-symbol": "h", "total protein half-life in vivo": 4.69}
{"item-sequence": "MIYPDEAMLYAPVEWHDCSEGFEDIRYEKSTDGIAKITINRPQVRNAFRPLTVKEMIQALADARYDDNIGVIILTGAGDKAFCSGGDQKVRGDYGGYKDDSGVHHLNVLDFQRQIRTCPKPVVAMVAGYSIGGGHVLHMMCDLTIAADNAIFGQTGPKVGSFDGGWGASYMARIVGQKKAREIWFLCRQYDAKQALDMGLVNTVVPLADLEKETVRWCREMLQNSPMALRCLKAALNADCDGQAGLQELAGNATMLFYMTEEGQEGRNAFNQKRQPDFSKFKRNP [P0ABU0]", "unit-symbol": "h", "total protein half-life in vivo": 4.73}
{"item-sequence": "MIPFNAPPVVGTELDYMQSAMGSGKLCGDGGFTRRCQQWLEQRFGSAKVLLTPSCTASLEMAALLLDIQPGDEVIMPSYTFVSTANAFVLRGAKIVFVDVRPDTMNIDETLIEAAITDKTRVIVPVHYAGVACEMDTIMALAKKHNLFVVEDAAQGVMSTYKGRALGTIGHIGCFSFHETKNYTAGGEGGATLINDKALIERAEIIREKGTNRSQFFRGQVDKYTWRDIGSSYLMSDLQAAYLWAQLEAADRINQQRLALWQNYYDALAPLAKAGRIELPSIPDGCVQNAHMFYIKLRDIDDRSALINFLKEAEIMAVFHYIPLHGCPAGEHFGEFHGEDRYTTKESERLLRLPLFYNLSPVNQRTVIATLLNYFS", "unit-symbol": "h", "total protein half-life in vivo": 4.72}
{"item-sequence": "MVKVYAPASSANMSVGFDVLGAAVTPVDGALLGDVVTVEAAETFSLNNLGRFADKLPSEPRENIVYQCWERFCQELGKQIPVAMTLEKNMPIGSGLGSSACSVVAALMAMNEHCGKPLNDTRLLALMGELEGRISGSIHYDNVAPCFLGGMQLMIEENDIISQQVPGFDEWLWVLAYPGIKVSTAEARAILPAQYRRQDCIAHGRHLAGFIHACYSRQPELAAKLMKDVIAEPYRERLLPGFRQARQAVAEIGAVASGISGSGPTLFALCDKPETAQRVADWLGKNYLQNQEGFVHICRLDTAGARVLEN", "unit-symbol": "h", "total protein half-life in vivo": 5.55}
